# TEST SYSTEM: PD-1/PD-L1 (Homo sapiens)
# Sequence (Q9NZQ7 19-238 limits assumed): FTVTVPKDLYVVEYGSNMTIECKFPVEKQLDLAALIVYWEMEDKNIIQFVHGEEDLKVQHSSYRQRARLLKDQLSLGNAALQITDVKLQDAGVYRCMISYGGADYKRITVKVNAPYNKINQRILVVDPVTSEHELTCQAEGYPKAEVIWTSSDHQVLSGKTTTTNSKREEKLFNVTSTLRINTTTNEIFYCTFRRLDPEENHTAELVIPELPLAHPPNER
# PROTOCOL TEXT: PD-1/PD-L1 biochemical protein-protein interaction assay (ALPHA)
# CONDITION DESCRIPTION: 0.3 nM His tagged PD-L1, 2.5 nM biotinylated Fc-PD-1, 60 minutes at 25° C., read-out: IC50 PD-L1-PD-1 Alpha IC50-mono PD-L1-fcP-D1
Note to self: use met only for IC50 readings below 0.1 nM; a reading exactly at 0.1 nM still gets not met.

COc1nc(-c2cccc(-c3cccc4c3CC[C@@H]4Oc3nc(OC)c(CN4CC[C@H](C(=O)O)C4)cc3Cl)c2Cl)ccc1CN1CC(C)(CO)C1	met
COc1nc(-c2cccc(-c3cccc4c3CC[C@@H]4Oc3nc(OCc4cncc(C#N)c4)c(CN[C@@](C)(CO)C(=O)O)cc3Cl)c2Br)ccc1CNC[C@@H]1CCC(=O)N1	met
C[C@@](CO)(NCc1cc(Cl)c(O[C@H]2CCc3c(-c4cccc(-c5ccc(C6=NCCN6)cc5)c4Cl)cccc32)nc1OCc1cncc(C#N)c1)C(=O)O	met
COc1nc(OCc2cccc(-c3cccc(COc4ccc(CNC[C@@H](O)CC(=O)O)c(OC)n4)c3Cl)c2Cl)ccc1CNC[C@@H](O)CC(=O)O	not met
CC(=O)N1CC2(CN(Cc3cn(C)c4nc(-c5cccc(-c6cccc(-c7cnc8c(CN9CC%10(C9)CN(C(C)=O)C%10)cn(C)c8n7)c6Cl)c5Cl)cnc34)C2)C1	not met
Cc1c(COc2cc(OCc3cncc(C#N)c3)c(CNC[C@@H]3CCC(=O)N3)cc2Cl)cccc1-c1cccc(-c2ccc(CNC[C@@H]3CCC(=O)N3)cc2)c1C	not met
COc1cc(-c2cccc(-c3cccc(-c4ccc(CNC[C@@H]5CCC(=O)N5)c(OC)c4)c3Cl)c2Cl)ccc1CNC[C@@H]1CCC(=O)N1	not met
Cc1c(COc2cc(OCc3cncc(C#N)c3)c(CN3C[C@@H](O)C[C@H]3C(=O)O)cc2Cl)cccc1-c1cccc(-c2ccc3c(c2)CC[C@H]3N(C)C)c1C	not met
Cc1c(COc2cc(OCc3cncc(C#N)c3)c(CN(C)C)cc2Cl)cccc1-c1cccc(-c2ccc(CN(C)C)nc2)c1C	not met
COc1cc(OCc2cccc(-c3cccc(COc4nc(OC)c(CNC5(C(=O)O)CCC5)cc4Cl)c3C)c2C)c(Cl)cc1CNC1(C(=O)O)CCC1	not met
COc1nc(-c2cccc(-c3cccc(N4Cc5cc(CN6CC7(CCC(=O)N7)C6)ccc5C4=O)c3Cl)c2Cl)ccc1CN1CC2(CCC(=O)N2)C1	not met
COc1cc(C(=O)N2CCc3c(-c4cccc5c4CCN5C(=O)c4ccc(CNC[C@@H](O)CC(=O)O)c(OC)c4)cccc32)ccc1CNC[C@@H](O)CC(=O)O	not met
C[C@@](CO)(NCc1cc(Br)c(O[C@H]2CCc3c(-c4cccc(-c5ccc(OCCNCCO)cc5)c4Cl)cccc32)nc1OCc1cncc(C#N)c1)C(=O)O	met
COc1nc(-c2cccc(-c3cccc4c3CC[C@@H]4Oc3nc(OC)c(CN4CC5(CCC(=O)N5)C4)cc3Cl)c2Cl)ccc1CNC[C@@H]1CCC(=O)N1	not met
Cc1c(COc2cc(OCc3cncc(C#N)c3)c(CNC[C@@H](O)CC(=O)O)cc2Cl)cccc1-c1cccc(NC(=O)c2ccc(CNC[C@@H](O)CC(=O)O)cn2)c1C	met
Cn1cc(CN2CC3(CCC(=O)N3)C2)c2ccc(-c3cccc(-c4cccc(-c5ccc6c(CN7CC8(CCC(=O)N8)C7)cn(C)c6n5)c4Cl)c3Cl)nc21	not met
